Form field: growth (one value per entry).
- Tested on: TK-10 renal
- Protocol notes: NCI-60 one-dose screen, 48 h (100 = growth as untreated, 0 = no growth, -100 = all killed)
- Settings: 10 µM
The panel holds about 83,000 compounds, 20% with a hit somewhere; the sample as a whole holds those more often.
Could you give me the number in %? Just the number is fine.

Example results:
>  <Molecule>
Cc1ccc(Nc2nnc(-c3cc(-c4ccncc4)n(-c4ccccc4)n3)s2)cc1

>  <Assayed system>
TK-10 renal

>  <Display unit>
%

>  <growth>
102

$$$$
>  <Molecule>
Nc1nc(N)c2c(ccc3nccc32)[nH]1

>  <Assayed system>
TK-10 renal

>  <Display unit>
%

>  <growth>
92.1

$$$$

Let us examine a further case.
// returns growth for O=C(Nc1ccc(Cl)cc1)N1NC(c2ccc(Cl)cc2)C=C1c1ccccc1 (stereo not drawn) with TK-10 renal; value = 103
